Assignment: determine reported pEC50 for the given molecules.
- Test system: West Nile virus
- run-description: Inhibition of Rluc-FL-WNV replicon in Vero cells
- Assay type: functional, organism-based
One number for each entry, as −log10 of the molar value.

Hi! Can you tell me pEC50 for each of these molecules?
1. CN1CCN(C(=O)c2ccc3nc4ccccc4c(NC4CCN(Cc5ccccc5)CC4)c3c2)CC1
2. CN1CCN(c2cc(-c3ccc(C(C)(C)C)cc3)c3ccccc3n2)CC1
3. O=C(Cc1ccc(Cl)cc1)N1N=C(c2cccs2)CC1c1ccc([N+](=O)[O-])cc1 (stereo not drawn)
4. CN1CCN(C(=O)c2cccc3c(NCCc4c[nH]c5ccccc45)c4ccccc4nc23)CC1
5. CCN(CC)C(=O)c1ccc2c(NC3CCN(Cc4ccccc4)CC3)c3ccccc3nc2c1
6. CN1CCN(C(=O)c2cccc3c(NC4CCN(Cc5ccccc5)CC4)c4ccccc4nc23)CC1

4.60
4.52
4.60
4.74
4.70
4.66

Return value of pEC50 for input "COc1c(C)c2c(c(O)c1C/C=C(\C)CCC(=O)O)C(=O)OC2" , no commentary.
7.40

----------
- run-description: Therapeutic index (CC50/EC50) in BHK21 cells
- Format: cell-based, BHK-21
- experimental-parameters: hamster, read-out: Ratio CC50/EC50
endpoint-name: selectivity ratio

Record excerpt, results attached:
>>> endpoint_value("O=C(c1ccccc1)N1N=C(c2cccs2)CC1c1ccc(Br)cc1 (stereo not given)")
"> 12"
>>> endpoint_value("O=C(Cc1ccc(Cl)cc1)N1N=C(c2cccs2)CC1c1ccc(Br)cc1 (stereo not given)")
"> 16"
>>> endpoint_value("CCN(CC)C(=O)c1cccc2c(NCCc3c[nH]c4ccccc34)c3ccccc3nc12")
16
>>> endpoint_value("CCN(CC)C(=O)c1cccc2c(NC3CCN(Cc4ccccc4)CC3)c3ccccc3nc12")
44

Next, consider the following molecule.
Return value of selectivity ratio for input O=C(c1ccccc1)N1N=C(c2ccc(Br)s2)CC1c1ccc(Cl)cc1 (stereo not given) , no commentary.
> 18

----------
Assignment: determine reported EC50 for the given compounds.
- System: BHK-21
- run-description: Inhibition of West Nile virus VLP replicon in BHK21 cell line
- Format: functional, cell-based
- experimental-parameters: Mesocricetus auratus

Record excerpt, results attached:
>>> endpoint_value("CN1CCN(C(=O)c2cccc3c(NCCc4c[nH]c5ccccc45)c4ccccc4nc23)CC1")
"17 µM"
>>> endpoint_value("COc1c(C)c2c(c(O)c1C/C=C(\\C)CCC(=O)O)C(=O)OC2 [MYCOPHENOLIC ACID]")
"0.04 µM"
>>> endpoint_value("CN1CCN(C(=O)c2ccc3nc4ccccc4c(NC4CCN(Cc5ccccc5)CC4)c3c2)CC1")
"25 µM"
>>> endpoint_value("O=C(c1ccccc1)N1N=C(c2cccs2)CC1c1ccc(Cl)cc1 (stereo not given)")
"15 µM"
>>> endpoint_value("CCN(CC)C(=O)c1cccc2c(NC3CCN(Cc4ccccc4)CC3)c3ccccc3nc12")
"20 µM"

Hi! Can you tell me EC50 for each of these compounds?
1. O=C(Cc1ccc(Cl)cc1)N1N=C(c2cccs2)CC1c1ccc([N+](=O)[O-])cc1 (stereo not given)
2. CN1CCN(C(=O)c2ccc3c(Oc4ccccc4)c4ccccc4nc3c2)CC1
3. CN1CCN(C(=O)c2ccc3nc4ccccc4c(NCCc4c[nH]c5ccccc45)c3c2)CC1
4. CN1CCN(Cc2ccc3c(c2)Oc2ccccc2C3)CC1
5. CN1CCN(C(=O)c2ccc3c(NC4CCN(Cc5ccccc5)CC4)c4ccccc4nc3c2)CC1

8 µM
18 µM
27 µM
28 µM
8 µM

----------
- run-description: Therapeutic index (CC50/EC50) in Vero cells
- Format: cell-based
- experimental-parameters: monkey, read-out: Ratio CC50/EC50
Assignment: determine reported selectivity ratio for the given compounds.
Give bare numbers.

Hi! Can you tell me selectivity ratio for each of these compounds?
1. CN1CCN(C(=O)c2cccc3c(Oc4ccccc4)c4ccccc4nc23)CC1
2. CCN(CC)C(=O)c1ccc2nc3ccccc3c(NC3CCN(Cc4ccccc4)CC3)c2c1

[2.5, 2.5]

----------
- System: BHK-21
- run-description: Inhibition of West Nile virus VLP replicon in BHK21 cell line
- Format: functional, cell-based
- experimental-parameters: Mesocricetus auratus
Assignment: determine reported pEC50 for the given compounds.
Numbers only, as −log10 of the molar value.

Record excerpt, results attached:
>>> endpoint_value("CCN(CC)C(=O)c1ccc2c(NC3CCN(Cc4ccccc4)CC3)c3ccccc3nc2c1")
5.22
>>> endpoint_value("CCN(CC)C(=O)c1ccc2nc3ccccc3c(NCCc3c[nH]c4ccccc34)c2c1")
4.70
>>> endpoint_value("NC(=O)c1ncn([C@@H]2O[C@H](CO)[C@@H](O)[C@H]2O)n1")
5.96

Hi! Can you tell me pEC50 for each of these compounds?
1. CN1CCN(c2cc(-c3ccc(C(C)(C)C)cc3)nc3ccccc23)CC1
2. CCN(CC)C(=O)c1cccc2c(NCCc3c[nH]c4ccccc34)c3ccccc3nc12

[5.10, 5.05]

----------
- run-description: Therapeutic index (CC50/EC50) in Vero cells
- Assay type: cell-based
- experimental-parameters: monkey, read-out: Ratio CC50/EC50
endpoint-name: selectivity ratio
Give bare numbers.

Record excerpt, results attached:
>>> endpoint_value("CN1CCN(C(=O)c2ccc3nc4ccccc4c(NCCc4c[nH]c5ccccc45)c3c2)CC1")
2.6
>>> endpoint_value("CCN(CC)C(=O)c1ccc2c(NCCc3c[nH]c4ccccc34)c3ccccc3nc2c1")
1.8
>>> endpoint_value("CN1CCN(C(=O)c2cccc3c(NC4CCN(Cc5ccccc5)CC4)c4ccccc4nc23)CC1")
3.6
>>> endpoint_value("CN1CCN(C(=O)c2ccc3nc4ccccc4c(NC4CCN(Cc5ccccc5)CC4)c3c2)CC1")
3.2

Hi! Can you tell me selectivity ratio for each of these compounds?
1. CN1CCN(c2cc(-c3ccc(C(C)(C)C)cc3)c3ccccc3n2)CC1
2. CN1CCN(C(=O)c2ccc3nc4ccccc4c(Oc4ccccc4)c3c2)CC1
3. CN1CCN(C(=O)c2ccc3c(NC4CCN(Cc5ccccc5)CC4)c4ccccc4nc3c2)CC1
4. CCN(CC)C(=O)c1ccc2c(NC3CCN(Cc4ccccc4)CC3)c3ccccc3nc2c1
5. CN1CCN(c2cc(-c3ccc(C(C)(C)C)cc3)nc3ccccc23)CC1

0.8
4
2.7
2.7
1.3

----------
- System: BHK-21
- run-description: Inhibition of West Nile virus VLP replicon in BHK21 cell line
- Format: functional, cell-based
- experimental-parameters: Mesocricetus auratus
Assignment: determine reported EC50 for the given molecules.
Give bare numbers, in µM.

>>> endpoint_value("CN1CCN(C(=O)c2ccc3nc4ccccc4c(Oc4ccccc4)c3c2)CC1")
20

Hi! Can you tell me EC50 for each of these molecules?
1. O=C(c1cccc2c(NCCc3c[nH]c4ccccc34)c3ccccc3nc12)N1CCOCC1
2. O=C(c1cccc2c(NC3CCN(Cc4ccccc4)CC3)c3ccccc3nc12)N1CCOCC1

23
20

Hi! Can you tell me EC50 for each of these molecules?
1. CN1CCN(C(=O)c2cccc3c(NC4CCN(Cc5ccccc5)CC4)c4ccccc4nc23)CC1
2. CN1CCN(C(=O)c2cccc3c(Oc4ccccc4)c4ccccc4nc23)CC1

20
20

----------
Assignment: determine reported selectivity ratio for the given compounds.
- run-description: Therapeutic index (CC50/EC50) in BHK21 cells
- Assay type: cell-based, BHK-21
- experimental-parameters: hamster, read-out: Ratio CC50/EC50
Numbers only.

Record excerpt, results attached:
>>> endpoint_value("CN1CCN(C(=O)c2ccc3c(Oc4ccccc4)c4ccccc4nc3c2)CC1")
3.6
>>> endpoint_value("CN1CCN(c2cc(-c3ccc(C(C)(C)C)cc3)c3ccccc3n2)CC1")
6.5
>>> endpoint_value("CCN(CC)C(=O)c1ccc2c(NC3CCN(Cc4ccccc4)CC3)c3ccccc3nc2c1")
12
>>> endpoint_value("CCN(CC)C(=O)c1ccc2nc3ccccc3c(NCCc3c[nH]c4ccccc34)c2c1")
4.4
>>> endpoint_value("CN1CCN(C(=O)c2ccc3nc4ccccc4c(Oc4ccccc4)c3c2)CC1")
4.7

Hi! Can you tell me selectivity ratio for each of these compounds?
1. CN1CCN(C(=O)c2cccc3c(NC4CCN(Cc5ccccc5)CC4)c4ccccc4nc23)CC1
2. CN1CCN(C(=O)c2cccc3c(Oc4ccccc4)c4ccccc4nc23)CC1

1: 20; 2: 7.5

----------
- run-description: Therapeutic index (CC50/EC50) in BHK21 cells
- Type: cell-based, BHK-21
- experimental-parameters: hamster, read-out: Ratio CC50/EC50
Assignment: determine reported selectivity ratio for the given molecules.
One number for each entry.

Record excerpt, results attached:
>>> endpoint_value("CC(C)(C)C1=NN(C(=O)c2ccccc2)C(c2ccc(Cl)cc2)C1 (configuration not stated)")
1.1
>>> endpoint_value("CN1CCN(c2cc(-c3ccc(C(C)(C)C)cc3)nc3ccccc23)CC1")
3.4
>>> endpoint_value("CC(C)(C)C(=O)N1N=C(C(C)(C)C)CC1c1ccc(Cl)cc1 (configuration not stated)")
2.2
>>> endpoint_value("CCN(CC)C(=O)c1ccc2c(NCCc3c[nH]c4ccccc34)c3ccccc3nc2c1")
18

Hi! Can you tell me selectivity ratio for each of these molecules?
1. O=C(c1cccc2c(NCCc3c[nH]c4ccccc34)c3ccccc3nc12)N1CCOCC1
2. O=C(c1cccc2c(NC3CCN(Cc4ccccc4)CC3)c3ccccc3nc12)N1CCOCC1

1. 13
2. 15
